# Tested on: Morganella morganii EP-14
# experimental_protocol: Anti-bacterial activity (MIC), agar dilution
# Type: cell-based
# test_settings: Morganella morganii, EP14, 18 h, about 10^6 CFU/ml, 37° C., read-out: MIC
readout_label: MIC

• Nc1nc(/C(=N/OCF)C(=O)N[C@@H]2C(=O)N3C(C(=O)[O-])=C(/C=C/C[N+]4(CCO)CCN(CCO)CC4)CS[C@H]23)ns1 [Example 27] = 0.05 µg/mL
• C[N+](C)(C/C=C/C1=C(C(=O)[O-])N2C(=O)[C@@H](NC(=O)/C(=N\OCF)c3nsc(N)n3)[C@H]2SC1)[C@H](CO)C(=O)NCO [Example 63] = ≤ 0.025 µg/mL
• C[C@@H](CO)[N+](C)(C)C/C=C/C1=C(C(=O)[O-])N2C(=O)[C@@H](NC(=O)/C(=N\OCC#N)c3nsc(N)n3)[C@H]2SC1 [Example 148] = 0.1 µg/mL
• C[N+]1(C/C=C/C2=C(C(=O)[O-])N3C(=O)[C@@H](NC(=O)/C(=N\OCF)c4nsc(N)n4)[C@H]3SC2)C[C@H](O)C[C@@H]1CO (single isomer, unassigned) [Example 6-1] = ≤ 0.025 µg/mL
• C[N+](C)(C/C=C/C1=C(C(=O)[O-])N2C(=O)[C@@H](NC(=O)/C(=N\OCF)c3nsc(N)n3)[C@H]2SC1)CCO [Example 64] = ≤ 0.025 µg/mL
• Nc1nc(/C(=N/OCF)C(=O)N[C@@H]2C(=O)N3C(C(=O)[O-])=C(/C=C/C[N+](N)(CCO)CCO)CS[C@H]23)ns1 [Example 107] = ≤ 0.025 µg/mL

Origin of the recorded values: patent US4921850A
